# Test system: MDA-MB-468 breast
# ASSAY_SUMMARY: NCI-60 one-dose screen, 48 h (100 = growth as untreated, 0 = no growth, -100 = all killed)
# CONDITION: 10 µM unless noted
About 83,000 compounds went through this panel and 20% of them were active in at least one assay; those are over-represented in the sample as a whole.
MEASURED_PARAMETER: growth (%)
Express it in %; write the number only.

Study these solved cases before continuing.
N#CC(C#N)N=Nc1ccc(Cl)cc1 :: -17.6
CC1=C(NCCN2CCCC2)C(=O)c2c(OCc3cccc(Cl)c3)cccc2C1=O :: 69.6
CN1CCN(c2ccc(C(=O)/C=C/c3cc(F)cc(C(F)(F)F)c3)cc2)CC1 :: 31.5
O=C(/C=C/c1cc(CN2CCOCC2)c(O)c2ncccc12)c1cc(CN2CCOCC2)c(O)c2ncccc12 :: 4.37
O=[N+]([O-])c1ccc(SSc2ccc([N+](=O)[O-])cc2Cl)c(Cl)c1 :: 74.6

input: Which growth value is on record for C=C1CC[C@@H]2[C@](C)(COC(C)=O)[C@H](OC(C)=O)CC[C@@]2(C)[C@@H]1CC(Nc1ccc(S(=O)(=O)Nc2nccc(C)n2)cc1)C1=CCOC1=O (some centres undefined) ?
output: -45.8

input: Which growth value is on record for Fc1ccc(-c2csc(Nc3cccc(Nc4nc(-c5ccc(F)cc5)cs4)c3)n2)cc1 ?
output: 38.6

input: Which growth value is on record for N#C/C(=C\c1cccc(C#N)c1)c1ccccc1 ?
output: 106

input: Which growth value is on record for COc1ccc(-c2nc(-c3nc4ccc(F)cc4[nH]3)cc3c2[nH]c2ccccc23)cc1 ?
output: 40
